# measured on: T1, VEGFR-1-Fc (UniProt P17948 27-338)
# T1 construct: domain: first three Ig domains; expressed in Drosophila S2 cells, purified on Protein A sepharose; also called VEGFR-1-Fc fusion protein; not shown: Fc fragment from the Signal-pIgPlus vector
# test method notes: receptor-Fc IP
recorded metric: binding result

Recorded results for 5 binders are shown here.
>>> df
                                     binder  recorded_metric  experimental_result
0  43-1 (ligand) AHYNTEILKFMDVYQRSYCHPREVCIDVGKEYPDEIEYIFKPPCVSVYRCGGCCNDEGLECVPTEESNITMQIMRIKPHQGQHIGEMSFLQHNKCECRPKKD   binding result                binds
1  82-14 (ligand) AHYNTEILKFMDVYQRSYCHPIETLVDIFQEFGVATNTFFKPPCVSVYRCGGCCNDEGLECMNTSTSYLSKTLFEITVPLSQGPKPVTISFANHTSCRCMSKLD   binding result           no binding
2  23-4 (ligand) AHYNTEILKSIDNEWRKTQCMPREVCIDVGKEYPDEIEYIFKPPCVSVYRCGGCCNSEGLQCMNTSTSYLSKTLFEIKPHQGQHIGEMSFLQHNKCECRPKKD   binding result           no binding
3  21-13 (ligand) AHYNTEILKSIDNEWRKTQCMPREVCIDVGKEYPDEIEYIFKPSCVPLMRCGGCCNDEGLECVPTEESNITMQIMRITVPLSQGPKPVTISFANHTSCRCMSKLD   binding result           no binding
4  62-6 (ligand) GQNHHEVVKFMDVYQRSYCHPREVCIDVGKEFGVATNTFFKPPCVSVYRCGGCCNDEGLECMNTSTSYLSKTLFEIKPHQGQHIGEMSFANHTSCRCMSKLD   binding result           no binding

Entry under test: 84-5 (ligand) AHYNTEILKFMDVYQRSYCHPIETLVDIFQEFGVATNTFFKPSCVPLMRCGGCCNDEGLECVPTEESNITMQIMRIKPHQGQHIGEMSFANHTSCRCMSKLD . Its binding result was binds

Entry under test: 54-1 (ligand) AHYNTEILKSIDNEWRKTQCMPIETLVDIFQEFGVATNTFFKPSCVPLMRCGGCCNDEGLECVPTEESNITMQIMRIKPHQGQHIGEMSFLQHNKCECRPKKD . Its binding result was no binding

Entry under test: 54-15 (ligand) AHYNTEILKSIDNEWRKTQCMPIETLVDIFQEFGVATNTFFKPSCVPLMRCGGCCNSEGLQCVPTEESNITMQIMRITVPLSQGPKPVTISFANHTSCRCMSKLD . Its binding result was no binding
